Form field: NK1 % recovery (wash-off) (one value per entry).
- tested.system: Neurokinin 1 (NK1) receptor (Cavia porcellus, UniProt P30547)
- Sequence (P30547 whole entry): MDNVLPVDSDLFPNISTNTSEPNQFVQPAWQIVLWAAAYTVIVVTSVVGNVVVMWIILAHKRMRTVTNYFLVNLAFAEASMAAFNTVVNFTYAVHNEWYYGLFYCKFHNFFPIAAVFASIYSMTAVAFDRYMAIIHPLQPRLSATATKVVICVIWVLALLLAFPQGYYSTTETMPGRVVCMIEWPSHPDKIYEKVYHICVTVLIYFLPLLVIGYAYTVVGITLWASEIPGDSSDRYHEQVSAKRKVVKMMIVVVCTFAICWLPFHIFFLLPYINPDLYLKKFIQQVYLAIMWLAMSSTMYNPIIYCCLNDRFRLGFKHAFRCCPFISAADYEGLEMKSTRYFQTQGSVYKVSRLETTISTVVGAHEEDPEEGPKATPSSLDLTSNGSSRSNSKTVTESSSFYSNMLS
observed.property: NK1 % recovery (wash-off)

[[record]]
compound = "CC(=O)N[C@H](C(=O)N[C@H](Cc1c[nH]c2ccccc12)C(=O)N[C@@H](Cc1ccccc1)C(=O)N(C)Cc1ccccc1)[C@@H](C)O [FR113680, Ac-Thr-D-Trp-Phe-N(CH3)Bn, reference compound]"
result = "53%"

[[record]]
compound = "C[C@@H](O)[C@H](NC(=O)CCCN1C(=O)CC(SCCO)C1=O)C(=O)N[C@H](Cc1cn(C=O)c2ccccc12)C(=O)N[C@@H](Cc1ccccc1)C(=O)N(C)Cc1ccccc1 (stereo partly drawn)"
result = "55%"

[[record]]
compound = "C[C@@H](O)[C@H](NC(=O)CCCCCN1C(=O)CC(SCCO)C1=O)C(=O)N[C@H](Cc1cn(C=O)c2ccccc12)C(=O)N[C@@H](Cc1ccccc1)C(=O)N(C)Cc1ccccc1 (stereo partly drawn)"
result = "80%"


Values from patent US5610140A
